Assign kcat to each entry below.
Substrate: [H][C@]12SCC(COC(C)=O)=C(C(=O)O)N1C(=O)[C@H]2NC(=O)CCC[C@@H](N)C(=O)O
PROCEDURE_TEXT: CPC consumption by HPLC, initial rates
Assay type: biochemical, Trigonopsis variabilis
TEST_CONTEXT: 0.1 M potassium phosphate pH 8.0, 30 °C, air saturated
Output spec: scalar in s⁻¹, unitless text.

Q: Note down kcat recorded for TvDAAO (Trigonopsis variabilis; C108F/E32R/F33D/F54S/M156L) (protein, FAD-containing; no tag mentioned) MAKIVVIGAGVAGLTTALQLLRKGHEVTIVSRDTPGDLSIGYTSPWAGANWLTSYDGGKLADYDAVSYPILRELARSSPEAGIRLISQRSHVLKRDLPKLEVAMSAIFQRNPWFKNTVDSFEIIEDRSRIVHDDVAYLVEFRSVCIHTGVYLNWLLSQCLSLGATVVKRRVNHIKDANLLHSSGSRPDVIVNCSGLFARFLGGVEDKKMYPIRGQVVLVRNSLPFMASFSSTPEKENEDEALYIMTRFDGTSIIGGCFQPNNWSSEPDPSLTHRILSRALDRFPELTKDGPLDIVRECVGHRPGREGGPRVELEKIPGVGFVVHNYGAAGAGYQSSYGMADEAVSYVERALTRPNL
Result: 106

Q: Note down kcat recorded for TvDAAO (Trigonopsis variabilis) (protein, FAD-containing; no tag mentioned) MAKIVVIGAGVAGLTTALQLLRKGHEVTIVSEFTPGDLSIGYTSPWAGANWLTFYDGGKLADYDAVSYPILRELARSSPEAGIRLISQRSHVLKRDLPKLEVAMSAICQRNPWFKNTVDSFEIIEDRSRIVHDDVAYLVEFRSVCIHTGVYLNWLMSQCLSLGATVVKRRVNHIKDANLLHSSGSRPDVIVNCSGLFARFLGGVEDKKMYPIRGQVVLVRNSLPFMASFSSTPEKENEDEALYIMTRFDGTSIIGGCFQPNNWSSEPDPSLTHRILSRALDRFPELTKDGPLDIVRECVGHRPGREGGPRVELEKIPGVGFVVHNYGAAGAGYQSSYGMADEAVSYVERALTRPNL
Result: 26
